Test system: MS2 coat protein
protocol.details: apparent KD of MS2 coat protein; designed switch direction (-1 OFF switch, 1 ON switch): -1; higher = weaker reporter binding
stated.conditions: input ligand: FMN 200 uM
The sequences listed here are annotated with their apparent KD of MS2 coat protein.
Express your answer in nM, writing the number without its unit.

# example entries with known answers
AAAGGGUGAGGAUAUCCAUCUGGAUCAGACUAGAUCCUGAUGGAGAAGGCACAUGAGGAUCACCCAUGUGAGUU [Eli 4x 4.33] (Eterna round: R97, puzzle: Exclusion 4) :: 112
UAUUAGCAAGCAAGAUCCUACAUGAGGAUCACCCAUGUGCUCGUCUUAAACGCAGAAUUACUGCGAGCUCGUCUUAU [Winner reversed engineered 25] (Eterna round: R97, puzzle: Sensor, turn-off variant 1) :: 579

Task: apparent KD of MS2 coat protein for GCAAGCUUAAUCUGUAUGAACAUGAGGAUCACCCAUGUAUAAGGUAAUUCUUUUGGGUUUUUUAUUGCUCGUCUUAU [JR_STOV1_Sub025] (Eterna round: R97, puzzle: Sensor, turn-off variant 1) ?
Output: 189
